# Protocol text: osmotic lysis modulators in infected erythrocytes, primary screen, PSAC antagonist project, cell-based, P. falciparum Indochina, OD700, 3 h (AID 1156)
# Protocol conditions: higher = more signal, called active from +8 up or from −8 down
Rule: z-score of 0.2 or more gives Criterion met; anything lower gives Criterion not met.

Prompt line: # bool: z-score of CN1C(=O)C2C=CC(C(O)c3ccc(Br)cc3)N(N(c3ccccc3)c3ccccc3)C2C1=O (stereo not drawn) >= 0.2
Response line: Criterion met

Prompt line: # bool: z-score of CO[C@@H]1COC(=O)CCC[C@@H](C)[C@H](OC)COC(=O)[C@H](Cc2ccccc2)NC(=O)CC=C[C@H]1C >= 0.2
Response line: Criterion met

Prompt line: # bool: z-score of CC(C)(C)OC(=O)CC[C@]1(C(N)=O)COC(c2ccc(OCCCO)cc2)=N1 >= 0.2
Response line: Criterion met

Prompt line: # bool: z-score of CC1CC/C=C\[C@H]2OC34C=CCN(Cn5nnc6ccccc65)C(=O)[C@H]3N(CCO)C(=O)[C@@H]4C2C(=O)O1 (stereo partly drawn) >= 0.2
Response line: Criterion not met

Prompt line: # bool: z-score of CN1C(=O)C2C=CC(C(O)C(c3ccccc3)c3ccccc3)N(NC(=O)OC(C)(C)C)C2C1=O (stereo not drawn) >= 0.2
Response line: Criterion not met

Prompt line: # bool: z-score of CC(CCC(=O)OC[C@H]1O[C@H](C#Cc2ccccc2)C=C[C@@H]1Oc1ccc(C)cc1)=NO[C@@H](C)c1cn([C@H](CO)Cc2ccccc2)nn1 >= 0.2
Response line: Criterion met

Prompt line: # bool: z-score of COC(=O)c1c(CC[C@@H](CO)NC(=O)N[C@H](Cc2ccccc2)Cn2cc(-c3ccccc3N)nn2)oc(C(C)=O)c1C(=O)OC >= 0.2
Response line: Criterion met

Prompt line: # bool: z-score of CO[C@@H]1COC(=O)[C@@H]2CCCN2C(=O)[C@@H](C)COC(=O)[C@H](COCc2ccccc2)NC(=O)CC=C[C@H]1C >= 0.2
Response line: Criterion met

Prompt line: # bool: z-score of COc1ccc(O[C@@H]2[C@H](O)CO[C@H]2C=CC#Cc2ccccc2)cc1 >= 0.2
Response line: Criterion met

Prompt line: # bool: z-score of C[C@H](c1ccccc1)N1C(=O)[C@H]2[C@H]3[C@H](O)[C@H](O)CC(=O)[C@@H]3CC[C@H]2C1=O >= 0.2
Response line: Criterion not met

Prompt line: # bool: z-score of CC(C)=CCCC(C)=CCON=C1[C@H]2CCn3c(=O)n(C)c(=O)n3[C@H]2[C@H](O)[C@@H]2O[C@H]12 >= 0.2
Response line: Criterion not met

Prompt line: # bool: z-score of COCCOC(=O)N1C(=O)[C@@]2(c3ccccc31)[C@H](C(N)=O)[C@H]1C(=O)O[C@H](c3ccccc3)[C@H](c3ccccc3)N1[C@@H]2c1ccccc1OCCO >= 0.2
Response line: Criterion not met

Prompt line: # bool: z-score of C[C@@H](c1ccccc1)N1C(=O)[C@H]2[C@H]3[C@H](O)[C@H](O)CC(=NNC(=O)OCc4ccccc4)[C@H]3CC[C@H]2C1=O >= 0.2
Response line: Criterion not met

----------
# Experimental target: Calmodulin-1 (Homo sapiens)
# Protocol text: calcium-bound CALM1 binders on microarrays, profiling panel, artefact control for SMM control-protein annotation, biochemical, small-molecule microarray, Cy5-labelled CALM1, plus calcium (AID 1112);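 note: score merges spot fluorescence with signal to noise from triplicate slides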
# Protocol conditions: Cy5-CALM1 binding fluorescence, higher = more signal
Measured property: composite z-score
Answers are plain numbers.

# per-item lookup of composite z-score; items listed below
1. O=C1[C@H]2[C@H]3[C@H](O)[C@H](O)CC(=NOC[C@@H](O)COCc4ccco4)[C@@H]3CC[C@H]2C(=O)N1c1ccc(F)cc1F
2. COC(=O)[C@H](C)NC(=O)CCC1CC(OC(=O)NCc2cccc3ccccc23)CC2(CCCC(COC(=O)NCC3CCCCC3)O2)O1 (some centres not stated)
3. COC(=O)[C@H](C)NC(=O)CCC1CC(OC(=O)NCc2ccc3c(c2)OCO3)CC2(CCCC(COC(=O)NCCOc3ccccc3)O2)O1 (some centres not stated)
4. COCCCNC(=O)[C@]1(CCC(=O)OC(C)(C)C)N=C(c2ccc(OCCCO)cc2)O[C@@H]1c1ccccc1N=[N+]=[N-]

Response line:
-1.01
-0.798
-0.604
0.671

----------
# Experimental target: Albumin (Bos taurus) (UniProt P02769)
# Sequence (P02769 whole entry, looked up): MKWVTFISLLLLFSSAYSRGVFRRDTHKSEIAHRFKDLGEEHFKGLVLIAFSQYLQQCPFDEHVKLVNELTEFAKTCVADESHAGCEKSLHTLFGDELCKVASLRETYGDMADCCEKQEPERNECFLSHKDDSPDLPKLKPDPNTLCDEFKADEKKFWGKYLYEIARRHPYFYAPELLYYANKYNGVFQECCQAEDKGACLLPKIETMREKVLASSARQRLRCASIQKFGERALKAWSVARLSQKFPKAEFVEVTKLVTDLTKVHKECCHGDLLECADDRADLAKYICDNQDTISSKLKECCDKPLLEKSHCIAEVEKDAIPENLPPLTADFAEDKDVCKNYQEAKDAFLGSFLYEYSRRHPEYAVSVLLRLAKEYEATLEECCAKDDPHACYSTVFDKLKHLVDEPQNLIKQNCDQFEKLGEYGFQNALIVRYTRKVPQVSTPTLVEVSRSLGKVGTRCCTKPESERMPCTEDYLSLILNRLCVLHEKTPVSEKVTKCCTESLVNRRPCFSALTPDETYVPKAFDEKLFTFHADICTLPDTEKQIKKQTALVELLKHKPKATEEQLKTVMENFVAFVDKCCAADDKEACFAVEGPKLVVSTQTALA
# Protocol text: bovine serum albumin binders on microarray, profiling panel, artefact control for SMM control protein annotation, biochemical, small-molecule microarray, Alexa647 label, 635/667 nm fluorescence (AID 1118);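 note: score merges 667 nm emission intensity and signal-to-noise per printed compound spot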
# Protocol conditions: BSA-A647 binding, fluorescence 635 nm, higher = more signal
Provide the recorded composite z-score for the entries that follow.
Answers are plain numbers.

Examples with their reported composite z-score follow.
Prompt line: Using known records, supply composite z-score for CC(C)NC(=O)[C@@H]1c2ccccc2C(=O)N(CC23CC4CC(CC(C4)C2)C3)[C@H]1c1ccc(CO)cc1
Response line: 0.283

Prompt line: Using known records, supply composite z-score for COC(=O)[C@H](C)NC(=O)CCC1CC(OC(=O)NCc2cccc3ccccc23)CC2(CCCC(COC(=O)NCCc3ccc(Cl)cc3)O2)O1 (stereo partly specified)
Response line: 0.147

Prompt line: Using known records, supply composite z-score for COCCCNC(=O)[C@]1(CCC(=O)OC(C)(C)C)N=C(c2ccc(OCCCO)cc2)O[C@@H]1c1ccccc1N=[N+]=[N-]
Response line: 0.913

Prompt line: Using known records, supply composite z-score for COC(=O)[C@H](C)NC(=O)CCC1CC(OC(=O)NCCc2ccc(F)cc2)CC2(CCCC(COC(=O)NCC(c3ccccc3)c3ccccc3)O2)O1 (stereo partly specified)
Response line: 0.675

Prompt line: Using known records, supply composite z-score for COC(=O)C1=C(C)[C@@H](O)[C@@H](C)[C@H](c2c(OC)c(OC)c(C)c(OC)c2OC)O1
Response line: 0.529

Prompt line: Using known records, supply composite z-score for CCOC(=O)[C@H](Cc1ccccc1)NC(=O)CCC1CC(OC(=O)NCc2ccc3c(c2)OCO3)CC2(CCCC(COC(=O)NCC3CCCCC3)O2)O1 (stereo partly specified)
Response line: 0.276

Prompt line: Using known records, supply composite z-score for COc1ccc(OC[C@H]2Cc3c(-c4ccccc4)nc4c(c3CO2)CN(CCOc2ccccc2)CC4)cc1
Response line: 0.445

Prompt line: Using known records, supply composite z-score for CC(C)=C1C(=O)C(c2ccccc2)=C2CN3C(=O)N(CCc4ccccc4)C(=O)[C@]3(Cc3ccc(F)cc3)[C@H]21
Response line: 0.697

Prompt line: Using known records, supply composite z-score for CCOC(=O)[C@H](Cc1ccccc1)NC(=O)CCC1CC(OC(=O)NCc2ccc3c(c2)OCO3)CC2(CCCC(COC(=O)NCC(c3ccccc3)c3ccccc3)O2)O1 (stereo partly specified)
Response line: 0.48

Prompt line: Using known records, supply composite z-score for O=C1[C@H]2[C@H]3[C@H](O)[C@H](O)CC(=NO[C@@H]4O[C@H](CO)[C@@H](O)[C@H](O)[C@H]4O)[C@H]3CC[C@H]2C(=O)N1Cc1ccc2c(c1)OCO2
Response line: 0.861

API: the following record is the query input.
Prompt line: Using known records, supply composite z-score for CC(C)=CCCC(C)=CCON=C1[C@H]2CCn3c(=O)n(C)c(=O)n3[C@H]2[C@H](O)[C@@H]2O[C@H]12
Response line: -0.286

----------
# Protocol text: small-molecule microarray binders of probe aLefty2, primary screen, biochemical, biotinylated probe, 635/667 nm fluorescence (AID 1094);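 note: score merges spot fluorescence near 667 nm with spot signal-to-noise ratio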
# Protocol conditions: higher = more signal
Note that class boundaries on composite z-score are zone 1 (below -0.2), zone 2 (-0.2 to below -0.07), zone 3 (-0.07 or more)

Some solved cases for reference:
Prompt line: Which composite z-score band matches C=CC[C@@H]1C=C[C@H](ON=Cc2ccc(C(=O)N3[C@H](c4ccc(C)cc4)[C@@H](C)CC[C@H]3C(=O)OC)cc2)[C@@H](CO)O1 ?
Response line: zone 2

Prompt line: Which composite z-score band matches C=CC[C@@H]1C=C[C@H](ON=C[C@@H](OC)[C@H](C)C=CCC(=O)OC)[C@@H](CO)O1 ?
Response line: zone 2

Prompt line: Which composite z-score band matches CCOC(=O)C[C@H]1[C@H](OC(=O)c2ccc(C(=O)c3ccccc3)cc2)[C@@H](NC(=O)c2ccc(-c3ccccc3)cc2)c2cc(OCCCO)ccc2N1C(=O)c1ccc2ccccc2n1 ?
Response line: zone 2

Prompt line: Which composite z-score band matches CCN1C(=O)[C@H]2[C@H]3[C@H](O)[C@H](O)CC(=NOCc4ccccc4)[C@H]3CC[C@H]2C1=O ?
Response line: zone 1

Prompt line: Which composite z-score band matches COC(=O)[C@H](C)NC(=O)[C@@H](C)CO ?
Response line: zone 3

Prompt line: Which composite z-score band matches COc1ccc(O[C@H]2C=C[C@@H](c3ccccc3)O[C@@H]2CON=C[C@@H](C)[C@H](OCc2ccccc2)C(C)C)cc1 ?
Response line: zone 1

Continuing:
Prompt line: Which composite z-score band matches COc1ccc(O[C@H]2C=C[C@@H](c3ccccc3)O[C@@H]2COC(=O)CCC(C)=NO[C@H](C)c2cn([C@@H]3COC[C@H]3O)nn2)cc1 ?
Response line: zone 2

Prompt line: Which composite z-score band matches CCOC(=O)[C@H](CC(C)C)NC(=O)CCC1CC(OC(=O)NCCc2ccc(F)cc2)CC2(CCCC(COC(=O)NCc3ccccc3)O2)O1 (stereo not given in full) ?
Response line: zone 2

Prompt line: Which composite z-score band matches C=CCN1C(=O)[C@]2(O[C@H](CCn3cc(CCO)nn3)[C@@H]([Si](C)(C)c3ccc(OC)cc3)[C@@H]2C)c2cc(N3CCOC3=O)ccc21 ?
Response line: zone 1

Prompt line: Which composite z-score band matches CC(C)NC(=O)[C@@]1(C)c2ccccc2C(=O)N(Cc2cc(F)cc(C(F)(F)F)c2)[C@H]1c1ccc(CO)cc1 ?
Response line: zone 3

Prompt line: Which composite z-score band matches COC(=O)CC1OC1[C@H](C)[C@@H](OC)C(C)C (stereo not given in full) ?
Response line: zone 3

Prompt line: Which composite z-score band matches CC(C)(C)OC(=O)CC[C@]1(C(N)=O)COC(c2ccc(OCCCO)cc2)=N1 ?
Response line: zone 3

Prompt line: Which composite z-score band matches CCCCCCc1nc(CCCc2cc3c(c(CCCCCC)n2)[Si](C(C)C)(C(C)C)O[C@H]3c2ccccc2)cc2c1[Si](C(C)C)(C(C)C)O[C@H]2c1ccccc1 ?
Response line: zone 1

Prompt line: Which composite z-score band matches CC(C)[Si]1(C(C)C)O[C@@H](c2ccccc2)c2cc(C3CC3)nc(-c3ccccc3)c21 ?
Response line: zone 1
